Molecular target: 12-lipoxygenase (Homo sapiens, UniProt P18054)
Construct: 12-lipoxygenase obtained from human platelets; from tissue; host or cells: human platelets
Sequence (P18054 whole entry): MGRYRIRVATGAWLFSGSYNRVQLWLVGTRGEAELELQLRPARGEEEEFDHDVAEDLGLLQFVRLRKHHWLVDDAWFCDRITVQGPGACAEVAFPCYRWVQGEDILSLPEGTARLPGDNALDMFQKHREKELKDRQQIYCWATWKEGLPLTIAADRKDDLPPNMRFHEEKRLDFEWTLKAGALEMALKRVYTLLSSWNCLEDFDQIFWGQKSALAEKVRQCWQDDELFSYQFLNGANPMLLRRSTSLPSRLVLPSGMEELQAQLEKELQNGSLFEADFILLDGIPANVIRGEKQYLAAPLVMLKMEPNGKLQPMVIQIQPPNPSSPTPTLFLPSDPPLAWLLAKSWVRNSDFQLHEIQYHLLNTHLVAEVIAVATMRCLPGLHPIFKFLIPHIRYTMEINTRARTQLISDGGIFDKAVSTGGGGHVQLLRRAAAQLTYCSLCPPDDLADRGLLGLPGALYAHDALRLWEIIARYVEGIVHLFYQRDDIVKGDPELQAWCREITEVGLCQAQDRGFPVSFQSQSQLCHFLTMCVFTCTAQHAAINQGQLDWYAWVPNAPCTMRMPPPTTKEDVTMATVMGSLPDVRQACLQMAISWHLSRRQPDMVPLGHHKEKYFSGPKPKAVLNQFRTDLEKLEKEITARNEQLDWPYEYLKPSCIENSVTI
Assay: 12-lipoxygenase inhibition, enzyme obtained from human platelets
Type: biochemical
Settings: 100 uM; read-out: Percent Inhibition, 12-Lipoxygenase
metric-name: inhibition at 100 µM (%)
Return type: number; implicit unit %.

IN: Requested field: inhibition at 100 µM. Item: Cc1ccc2ccc(=O)n(O)c2c1 [Example 13, 7-Methyl-1-hydroxyquinol-2(1H)-one]
OUT: 97

IN: May I ask what inhibition at 100 µM has been recorded for COC(=O)c1cc2ccccc2n(O)c1=O [Example 2, 3-Carbomethoxy-1-hydroxyquinol-2(1H)-one] ?
OUT: 94

IN: # get_value(readout='inhibition at 100 µM', item= O=c1c2ccccc2c2ccccc2n1O [Example 15, 3,4-Benzo-1-hydroxyquinol-2(1H)-one] )
OUT: 98

IN: What measured inhibition at 100 µM goes with O=c1ccc2c([N+](=O)[O-])cccc2n1O [Example 6, 5-Nitro-1-hydroxyquinol-2(1H)-one] ?
OUT: 98

IN: Form field: reported inhibition at 100 µM of COc1ccc2c(ccc(=O)n2O)c1 [Example 10, 6-Methoxy-1-hydroxyquinol-2-(1H)-one]
OUT: 97

IN: Could you share which inhibition at 100 µM value was measured for O=c1c2ccccc2c(Br)cn1O [Example 29, 4-Bromo-2-hydroxyquinol-1(2H)-one] ?
OUT: 96

====

Molecular target: 12-lipoxygenase (Homo sapiens)
Construct: 12-lipoxygenase obtained from human platelets; from tissue; host or cells: human platelets
Test: 12-lipoxygenase inhibition, enzyme obtained from human platelets
Format: biochemical
Conditions: 100 uM; read-out: Percent Inhibition, 12-Lipoxygenase
As shown below, each of these compounds has a reported inhibition at 100 µM value.
# value in %; strip the unit string

Here's what some known entries look like.
O=c1ccc2cc([N+](=O)[O-])ccc2n1O [Example 11, 6-Nitro-1-hydroxyquinol-2(1H)-one] = 90
O=c1ccc2cc(-c3ccccc3)ccc2n1O [Example 12, 6-Phenyl-1-hydroxyquinol-2(1H)-one] = 98
O=c1ccc2ccccc2n1O [Example 1, 1-hydroxyquinol-2-(1H)-one] = 98
O=c1ccc2cc(Cl)ccc2n1O [Example 8, 6-Chloro-1-hydroxyquinol-2(1H)-one] = 97
COc1ccc2ccn(O)c(=O)c2c1 [Example 34] = 98
CC(C)c1cc2ccccc2n(O)c1=O [Example 16, 3-Isopropyl-1-hydroxy-quinol-2(1H)--one] = 98
O=c1c2ccccc2c(-c2ccccc2)cn1O [Example 31, 4-Phenyl-2-hydroxyquinol-1(2H)-one] = 99

Please look at the following compound next.
IN: Requested read-out: inhibition at 100 µM. Entry: O=c1c2ccccc2c([N+](=O)[O-])cn1O [Example 30, 4-Nitro-2-hydroxyquinol-1(2H)-one]
OUT: 83

====

Reported pIC50 values follow for various compounds
Molecular target: 5-lipoxygenase (Rattus norvegicus, UniProt P12527)
Construct: 20,000 g supernatant from 7.5 million homogenized RBL-1 cells; endogenous in cells
Sequence (P12527 whole entry): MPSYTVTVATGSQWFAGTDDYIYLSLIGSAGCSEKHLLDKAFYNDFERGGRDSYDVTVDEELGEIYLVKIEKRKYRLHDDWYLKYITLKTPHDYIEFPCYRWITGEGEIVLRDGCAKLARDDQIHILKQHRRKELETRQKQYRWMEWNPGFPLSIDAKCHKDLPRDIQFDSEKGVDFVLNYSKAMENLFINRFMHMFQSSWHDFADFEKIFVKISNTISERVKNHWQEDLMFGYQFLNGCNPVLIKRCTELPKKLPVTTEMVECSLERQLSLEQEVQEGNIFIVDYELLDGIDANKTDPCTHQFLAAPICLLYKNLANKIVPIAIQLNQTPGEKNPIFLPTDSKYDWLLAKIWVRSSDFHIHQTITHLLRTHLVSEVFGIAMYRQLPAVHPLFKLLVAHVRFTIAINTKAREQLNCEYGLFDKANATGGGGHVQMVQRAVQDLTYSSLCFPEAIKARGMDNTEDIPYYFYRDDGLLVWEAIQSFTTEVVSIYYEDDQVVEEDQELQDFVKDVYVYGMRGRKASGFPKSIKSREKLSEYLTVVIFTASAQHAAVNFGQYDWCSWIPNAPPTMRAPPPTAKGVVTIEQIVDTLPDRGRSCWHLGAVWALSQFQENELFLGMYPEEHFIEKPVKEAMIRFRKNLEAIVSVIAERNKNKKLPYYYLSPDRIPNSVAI
Experiment: 5-lipoxygenase inhibition, 20,000 g supernatant from homogenized RBL-1 cells, radiolabeled arachidonic acid
Details: 5-lipoxygenase, RBL-1 supernatant; 50% intercept from linear regression of % inhibition vs log concentration
// field semantics: pIC50 = negative decimal log of concentration (mol/L)

The following compounds have reported results that may help.
O=c1ccc2ccccc2n1O [Example 1, 1-hydroxyquinol-2-(1H)-one] = 5.28
COc1ccc2ccn(O)c(=O)c2c1 = 5.60
O=c1ccc2c([N+](=O)[O-])cccc2n1O [Example 6, 5-Nitro-1-hydroxyquinol-2(1H)-one] = 5.43

IN: Item under review: O=c1ccc2c3ccccc3ccc2n1O [Example 14, 5,6-Benzo-1-hydroxyquinol-2(1H)-one] . Reported pIC50?
OUT: 6.08

IN: Would you kindly share the measured pIC50 for Cc1cccc2c(=O)n(O)ccc12 [Example 33, 5-Methyl-2-hydroxyquinol-2(1H)-one] ?
OUT: 5.62

IN: Look at this compound and give its reported pIC50. O=c1c2ccccc2ccn1O [Example 27, 2-hydroxyquinol-1(2H)-one]
OUT: 5.22

IN: Any idea what pIC50 was measured for O=c1ccc2cc([N+](=O)[O-])ccc2n1O [Example 11, 6-Nitro-1-hydroxyquinol-2(1H)-one] ?
OUT: 4.85

IN: What does the record list as pIC50 for O=c1c(Br)cc2ccccc2n1O [Example 3, 3-Bromo-1-hydroxyquinol-2-(1H)-one] ?
OUT: 5.38

IN: Recorded pIC50 for O=c1c2ccccc2c(-c2ccccc2)cn1O [Example 31, 4-Phenyl-2-hydroxyquinol-1(2H)-one] , please?
OUT: 6.35

IN: Suppose we examine the compound O=c1c2ccccc2c2ccccc2n1O [Example 15, 3,4-Benzo-1-hydroxyquinol-2(1H)-one] ; what pIC50 value has been reported?
OUT: 5.60

IN: Query: pIC50; subject: Cc1cc(=O)n(O)c2ccccc12 [Example 4, 4-Methyl-1-hydroxyquinol-2(1H)-one]
OUT: 5.85

IN: Name the reported pIC50 value associated with the compound COC(=O)c1cc2ccccc2n(O)c1=O [Example 2, 3-Carbomethoxy-1-hydroxyquinol-2(1H)-one]
OUT: 4.62

IN: Name the recorded pIC50 for O=c1ccc2cc(Cl)ccc2n1O [Example 8, 6-Chloro-1-hydroxyquinol-2(1H)-one] .
OUT: 6.06

IN: Given the entry Cc1ccc2ccc(=O)n(O)c2c1 [Example 13, 7-Methyl-1-hydroxyquinol-2(1H)-one] , report its measured pIC50.
OUT: 6.01

IN: Give its pIC50 value. Item: "Cc1ccc2c(ccc(=O)n2O)c1[N+](=O)[O-]"
OUT: 5.70

IN: Recorded pIC50 of "O=c1c2ccccc2c(-c2ccccc2)c(-c2ccccc2)n1O" , please.
OUT: 5.82

IN: For Cc1ccc2c(ccc(=O)n2O)c1 [Example 9, 6-Methyl-1-hydroxyquinol-2-(1H)-one] , what is its reported pIC50?
OUT: 5.96

IN: Fill in the blank: the reported pIC50 of O=c1ccc2cc(-c3ccccc3)ccc2n1O [Example 12, 6-Phenyl-1-hydroxyquinol-2(1H)-one] is ____.
OUT: 6.47

IN: pIC50 for "COc1ccc2c(c1)c(Cl)cc(=O)n2O" ?
OUT: 5.80

IN: pIC50 lookup needed for O=c1c2ccccc2c(Br)cn1O [Example 29, 4-Bromo-2-hydroxyquinol-1(2H)-one] , thanks.
OUT: 5.59

IN: Suppose we examine the compound COc1ccc2c(ccc(=O)n2O)c1 [Example 10, 6-Methoxy-1-hydroxyquinol-2-(1H)-one] ; what pIC50 value has been reported?
OUT: 5.82

IN: Query: pIC50; subject: Cc1cn(O)c(=O)c2ccccc12 [Example 32, 4-Methyl-2-hydroxy-quinol-1(2H)-one]
OUT: 5.41
